Taken from paper PMC10247784.

target: human TAS2R4 (Homo sapiens); construct: expressed in transfected cells; host or cells: HEK293T-Gα16gust44; assay: Calcium imaging assay (FLIPR), HEK293T-Gα16gust44 cells transfected with human TAS2R4; format: cell-based; details: Time (s) 14; further: test concentration or dose not given here
Sequence (Q9NYW5 whole entry): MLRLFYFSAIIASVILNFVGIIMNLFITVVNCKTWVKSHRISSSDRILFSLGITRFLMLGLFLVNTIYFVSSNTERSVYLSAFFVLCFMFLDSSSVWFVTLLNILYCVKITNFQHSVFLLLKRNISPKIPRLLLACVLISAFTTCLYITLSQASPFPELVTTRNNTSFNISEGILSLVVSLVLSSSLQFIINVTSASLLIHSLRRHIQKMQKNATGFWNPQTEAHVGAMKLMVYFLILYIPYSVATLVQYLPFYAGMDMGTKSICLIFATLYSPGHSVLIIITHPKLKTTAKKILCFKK
READOUT_NAME: RLU, fluorescence trace (RLU)

                              line_notation                tested_target  measured
0  C[C@H](CCC(=O)O)[C@H]1CC[C@H]2[C@@H]3CC[C@@H]4C[C@H](O)CC[C@]4(C)[C@H]3C[C@H](O)[C@]12C  human TAS2R4 (Homo sapiens)  -18.1346
1  C[C@H](CCC(=O)O)[C@H]1CC[C@H]2[C@@H]3[C@H](O)C[C@@H]4C[C@H](O)CC[C@]4(C)[C@H]3C[C@H](O)[C@]12C  human TAS2R4 (Homo sapiens)    -1.277
2  C[C@H](CCC(=O)NCC(=O)O)[C@H]1CC[C@H]2[C@@H]3[C@H](O)C[C@@H]4C[C@H](O)CC[C@]4(C)[C@H]3C[C@H](O)[C@]12C  human TAS2R4 (Homo sapiens)    -6.673
3  C[C@H](CCC(=O)NCCS(=O)(=O)O)[C@H]1CC[C@H]2[C@@H]3CC[C@@H]4C[C@H](O)CC[C@]4(C)[C@H]3CC[C@]12C  human TAS2R4 (Homo sapiens)     6.067
4  C[C@H](CCC(=O)NCCS(=O)(=O)O)[C@H]1CC[C@H]2[C@@H]3[C@H](O)C[C@@H]4C[C@H](O)CC[C@]4(C)[C@H]3C[C@H](O)[C@]12C  human TAS2R4 (Homo sapiens)  -34.8945
5  C[C@H](CCC(=O)O)[C@H]1CC[C@H]2[C@@H]3[C@@H](O)C[C@@H]4C[C@H](O)CC[C@]4(C)[C@H]3CC[C@]12C  human TAS2R4 (Homo sapiens)   -16.031
